# TARGET SYSTEM: PA/PB1 (Influenza A virus (A/Puerto Rico/8/1934(H1N1)), UniProt P03431+P03433)
# METHOD: Inhibition of Influenza A virus (A/Puerto Rico/8/34(H1N1)) His6-tagged PA (239 to 716) interaction with GST-tagged PB1 (1 to 25) expressed in Escherichia coli BL21 (DE3) by ELISA
pIC50: −log10 of the molar value.
Exercise: for every item that follows, state its recorded pIC50.

INSERT INTO measurements (smiles_data, result_value) VALUES
  ('O=C(Nc1sc2c(c1C(=O)O)CCC2)c1ccccc1F', 3.80),
  ('CCOC(=O)c1c(NC(=O)c2ccccc2F)sc2c1CCC2', '< 3.70'),
  ('O=C(Nc1ccccn1)c1c(NC(=O)C2CCCCC2)sc2c1CCCCC2', '< 3.70'),
  ('O=C(Nc1sc2c(c1C(=O)Nc1ccccn1)CCCCC2)c1ccc(Cl)cc1Cl', '< 3.70');

Provide pIC50 for all items below, preserving their order.
1. O=C(Nc1sc2c(c1C(=O)Nc1ccccn1)CCCCC2)c1ccccc1Cl
2. O=C(Cc1ccc2ncccc2c1)Nc1sc2c(c1C(=O)Nc1ccccn1)CCCCC2

1: 3.87; 2: 4.32

Provide pIC50 for all items below, preserving their order.
1. O=C(CCc1ccc(Cl)cc1)Nc1sc2c(c1C(=O)Nc1ccccn1)CCCCC2
2. O=C(Nc1sc2c(c1C(=O)Nc1ccccn1)CCCC2)c1ccccc1F
3. O=C(Nc1sc2c(c1C(=O)Nc1ccccn1)CCCCC2)c1cccc(F)c1
4. O=C(Nc1sc2c(c1C(=O)O)CCCCC2)c1ccc(F)cc1
5. NC(=O)c1c(NC(=O)c2ccccc2F)sc2c1CCCC2
6. Nc1sc2c(c1C(=O)Nc1ccccn1)CCCCC2
7. CSCC[C@H](N)C(=O)N[C@@H](CC(=O)O)C(=O)N[C@H](C(=O)N[C@@H](CC(N)=O)C(=O)N1CCC[C@H]1C(=O)N[C@H](C(=O)N[C@@H](CC(C)C)C(=O)N[C@@H](CC(C)C)C(=O)N[C@@H](Cc1ccccc1)C(=O)N[C@@H](CC(C)C)C(=O)N[C@@H](CCCCN)C(=O)N[C@H](C(=O)N1CCC[C@H]1C(=O)N[C@@H](C)C(=O)N[C@@H](CCC(N)=O)C(=O)O)C(C)C)[C@@H](C)O)C(C)C

1: < 3.70; 2: < 3.70; 3: < 3.70; 4: < 3.70; 5: < 3.70; 6: 4.46; 7: 4.46

Provide pIC50 for all items below, preserving their order.
1. O=C(CC1CCCCC1)Nc1sc2c(c1C(=O)Nc1ccccn1)CCCCC2
2. O=C(Nc1sc2c(c1C(=O)Nc1ccccn1)CCC2)c1ccccc1F
3. O=C(Nc1sc2c(c1C(=O)O)CCCCC2)c1ccccc1F
4. O=C(CCc1ccc(F)cc1)Nc1sc2c(c1C(=O)Nc1ccccn1)CCCCC2
5. CCOC(=O)c1c(NC(=O)c2ccccc2F)sc2c1CCCCC2

1: < 3.70; 2: < 3.70; 3: 3.70; 4: < 3.70; 5: 3.70

Provide pIC50 for all items below, preserving their order.
1. CCOC(=O)c1c(NC(=O)c2ccc(OC)cc2)sc2c1CCCCC2
2. CCOC(=O)c1c(NC(=O)c2ccc(F)cc2)sc2c1CCCCC2

< 3.70
< 3.70
